// data source = ChEMBL document CHEMBL1154087

Target chain: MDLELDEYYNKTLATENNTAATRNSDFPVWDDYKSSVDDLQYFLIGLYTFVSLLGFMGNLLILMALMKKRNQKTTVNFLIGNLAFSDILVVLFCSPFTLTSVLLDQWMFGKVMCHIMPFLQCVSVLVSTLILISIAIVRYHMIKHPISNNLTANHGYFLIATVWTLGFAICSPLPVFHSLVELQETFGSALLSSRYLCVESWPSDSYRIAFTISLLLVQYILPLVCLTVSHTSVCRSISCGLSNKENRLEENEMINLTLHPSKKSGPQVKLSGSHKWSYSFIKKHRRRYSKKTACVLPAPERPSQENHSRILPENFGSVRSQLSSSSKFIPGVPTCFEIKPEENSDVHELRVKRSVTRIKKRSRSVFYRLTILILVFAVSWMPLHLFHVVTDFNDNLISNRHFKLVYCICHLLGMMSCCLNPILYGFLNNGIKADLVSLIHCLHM
pIC50: −log10 of the molar value.
endpoint: pIC50

* CCS(=O)(=O)N1CC2(CCN(C(=O)Nc3cn(-c4ccc(OC)cc4)cn3)CC2)c2ccccc21 | 8.49
* CS(=O)(=O)N1CC2(CCN(C(=O)Nc3ccc(-n4nccn4)cc3)CC2)c2ccccc21 | 7.39
* CS(=O)(=O)N1CC2(CCN(C(=O)Nc3cn(-c4ccccc4)cn3)CC2)c2ccccc21 | 8.62
* CS(=O)(=O)N1CC2(CCN(C(=O)Nc3ccc(Cl)cn3)CC2)c2ccccc21 | 8.15
